# system_tested: UniProt P29275
# protocol_summary: biochemical
pKi: −log10 of the molar value.

# compound, pKi
data = [
    ("C#CCn1c(=O)c2c(nc(C=Cc3cccc(OC)c3)n2C)n(CCCO)c1=O [MSX-2]", "< 6.00"),
]

* * *

# system_tested: A2A and A2BARs in HeLa cell membranes (Homo sapiens, UniProt P29274+P29275)
# Construct: HeLa cells natively expressing human A2A and A2BARs; endogenous in cells
# Sequence (P29274 whole entry, one chain of several): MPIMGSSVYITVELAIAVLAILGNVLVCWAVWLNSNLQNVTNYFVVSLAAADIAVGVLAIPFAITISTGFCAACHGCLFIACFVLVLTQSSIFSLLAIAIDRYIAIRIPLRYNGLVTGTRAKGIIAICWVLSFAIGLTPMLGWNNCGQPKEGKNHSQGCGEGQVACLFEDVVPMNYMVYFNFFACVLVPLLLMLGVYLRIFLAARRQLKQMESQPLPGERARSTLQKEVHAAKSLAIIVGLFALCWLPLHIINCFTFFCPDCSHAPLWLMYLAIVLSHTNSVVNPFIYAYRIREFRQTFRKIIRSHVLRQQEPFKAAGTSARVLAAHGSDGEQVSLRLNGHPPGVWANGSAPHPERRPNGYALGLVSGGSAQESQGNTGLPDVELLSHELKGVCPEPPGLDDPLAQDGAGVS
# protocol_summary: Radioligand affinity at HeLa cells (A2B ≥ A2A)
# experimental_parameters: homologous competition, read-out: KD ± SEM

# compound, system_tested, Kd [nM]
measured = [
    ("CCCn1c(=O)[nH]c2nc(-c3ccc(S(=O)(=O)N4CCN(c5ccc(Cl)cc5)CC4)cc3)[nH]c2c1=O [[³H]PSB-603]", "A2A and A2BARs in HeLa cell membranes (Homo sapiens, UniProt P29274+P29275)", 2.49),
]

* * *

# system_tested: A2BARs in HeLa cell membranes (Homo sapiens)
# Construct: HeLa cells natively expressing human A2A and A2BARs; endogenous in cells
# Sequence (P29275 1-332): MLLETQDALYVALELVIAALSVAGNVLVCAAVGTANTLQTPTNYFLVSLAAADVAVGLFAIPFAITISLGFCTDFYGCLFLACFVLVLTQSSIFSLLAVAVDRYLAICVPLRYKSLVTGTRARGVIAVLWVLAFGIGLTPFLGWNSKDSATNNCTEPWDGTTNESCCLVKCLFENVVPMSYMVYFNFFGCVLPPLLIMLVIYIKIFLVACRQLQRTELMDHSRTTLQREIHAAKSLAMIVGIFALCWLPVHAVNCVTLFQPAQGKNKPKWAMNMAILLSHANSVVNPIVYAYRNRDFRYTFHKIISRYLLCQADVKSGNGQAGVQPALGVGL
# experimental_parameters: vs [3H]PSB-603 (0.3 nM); HeLa cells, A2B ≥ A2A; read-out: Ki ± SEM

# smiles_record, Ki
measured = [
    ("CCCn1c(=O)[nH]c2nc(-c3ccc(S(=O)(=O)N4CCN(c5ccc(Cl)cc5)CC4)cc3)[nH]c2c1=O", "1.43 nM"),
    ("N#Cc1c(N)nc(SCC(N)=O)c(C#N)c1-c1ccc(OCC2CC2)cc1", "212 nM"),
]

* * *

# system_tested: human A2AAR (Homo sapiens)
# protocol_summary: cAMP accumulation assay in CHO-A2A cells
# experimental_parameters: cAMP accumulation; CHO-A2A
parameter: EC50

# compound, system_tested, value_observed
data = [
    ("N#Cc1c(N)nc(SCC(N)=O)c(C#N)c1-c1ccc(OCC2CC2)cc1 [BAY60-6583]", "human A2AAR (Homo sapiens)", "> 10 µM"),
]

* * *

# system_tested: A2A and A2BARs in intact primary human lymphocytes
# protocol_summary: Radioligand affinity at intact primary human T-lymphocytes, unstimulated
# Assay type: binding
# experimental_parameters: T-Lymphocytes unstimulated (A2A > A2B); intact cells; homologous competition; read-out: KD ± SEM
parameter: Kd (pM)

# compound, parameter, value_observed
rows = [
    ("CCCn1c(=O)[nH]c2nc(-c3ccc(S(=O)(=O)N4CCN(c5ccc(Cl)cc5)CC4)cc3)[nH]c2c1=O [[³H]PSB-603]", "Kd", 680),
]

* * *

# system_tested: A2BARs in Jurkat-T cell membranes (Homo sapiens)
# Construct: Human Jurkat-T cells natively expressing A2A and A2BARs; endogenous in cells
# Sequence (P29275 1-332): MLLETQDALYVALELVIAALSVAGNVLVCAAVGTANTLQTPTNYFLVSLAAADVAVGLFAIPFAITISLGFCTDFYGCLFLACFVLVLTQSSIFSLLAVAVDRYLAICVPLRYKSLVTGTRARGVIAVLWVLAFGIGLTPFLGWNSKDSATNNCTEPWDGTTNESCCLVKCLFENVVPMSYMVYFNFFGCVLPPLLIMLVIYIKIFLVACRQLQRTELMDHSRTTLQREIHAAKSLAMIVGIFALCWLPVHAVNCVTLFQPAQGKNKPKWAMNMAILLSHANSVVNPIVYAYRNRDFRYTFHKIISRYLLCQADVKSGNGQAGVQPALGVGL
# experimental_parameters: vs [3H]PSB-603 (0.3 nM); Jurkat-T cells, A2B ≥ A2A; read-out: Ki ± SEM

# compound, Ki
measured = [
    ("CCCn1c(=O)[nH]c2nc(-c3ccc(S(=O)(=O)N4CCN(c5ccc(Cl)cc5)CC4)cc3)[nH]c2c1=O [PSB-603]", "0.00143 µM"),
    ("N#Cc1c(N)nc(SCC(N)=O)c(C#N)c1-c1ccc(OCC2CC2)cc1 [BAY60-6583]", "2.96 µM"),
]

* * *

# system_tested: human A2AAR (Homo sapiens, UniProt P29274)
# Construct: expressed in transfected cells
# Sequence (P29274 whole entry): as the sequence (P29274 whole entry, one chain of several) above
# Type: binding

# smiles_record, scale_unit, Ki
records = [
    ("C#CCn1c(=O)c2c(nc(C=Cc3cccc(OC)c3)n2C)n(CCCO)c1=O", "nM", 5),
]
